- RUN DESCRIPTION: Trial 000015 Part 1: pharmacokinetics after single intranasal administration
- RECORDED CONDITIONS: female, human, plasma, other: intranasal, t½, after i.n. administration, Trial 000015 key results
*1 amine or outer side, *2 acyl side, *3 side chain or, on linkers, in order; H or OH if unused. Where a SMILES comes first, the peptide text is derived from it. Bridges are numbered along the chain shown (N, C = ends). [ ]: non-standard residue; d: D form. N(4-F-Bzl)Gly = O=C(O)CNCc1ccc(F)cc1; X1 = O=C(CCC[*:2])[*:1]

{"MOLECULE": "CC[C@H](C)[C@@H]1NC(=O)[C@H](Cc2ccc(O)cc2)NC(=O)CCCSC[C@@H](C(=O)N(CC(=O)N[C@@H](CC(C)C)C(=O)NCC(N)=O)Cc2ccc(F)cc2)NC(=O)[C@H](CC(N)=O)NC(=O)[C@H](CCC(N)=O)NC1=O [merotocin] (YIQNC[N(4-F-Bzl)Gly]LG-NH2; linker N-5 via X1)", "half-life": "~30 min"}
